target: T1, Human PCSK9 Alexa Fluor 647 (human, UniProt Q8NBP7 31-692, limits assumed, Alexa Fluor 647 label (site not stated)); test: TR-FRET competition: PCSK9-Alexa Fluor 647 vs LDLR ECD-Eu kryptate
T1 construct: Labelled tracer of the TR-FRET assay, 16 nM stock; also called proprotein convertase subtilisin/kexin type 9
T1 sequence (Q8NBP7 31-692 limits assumed): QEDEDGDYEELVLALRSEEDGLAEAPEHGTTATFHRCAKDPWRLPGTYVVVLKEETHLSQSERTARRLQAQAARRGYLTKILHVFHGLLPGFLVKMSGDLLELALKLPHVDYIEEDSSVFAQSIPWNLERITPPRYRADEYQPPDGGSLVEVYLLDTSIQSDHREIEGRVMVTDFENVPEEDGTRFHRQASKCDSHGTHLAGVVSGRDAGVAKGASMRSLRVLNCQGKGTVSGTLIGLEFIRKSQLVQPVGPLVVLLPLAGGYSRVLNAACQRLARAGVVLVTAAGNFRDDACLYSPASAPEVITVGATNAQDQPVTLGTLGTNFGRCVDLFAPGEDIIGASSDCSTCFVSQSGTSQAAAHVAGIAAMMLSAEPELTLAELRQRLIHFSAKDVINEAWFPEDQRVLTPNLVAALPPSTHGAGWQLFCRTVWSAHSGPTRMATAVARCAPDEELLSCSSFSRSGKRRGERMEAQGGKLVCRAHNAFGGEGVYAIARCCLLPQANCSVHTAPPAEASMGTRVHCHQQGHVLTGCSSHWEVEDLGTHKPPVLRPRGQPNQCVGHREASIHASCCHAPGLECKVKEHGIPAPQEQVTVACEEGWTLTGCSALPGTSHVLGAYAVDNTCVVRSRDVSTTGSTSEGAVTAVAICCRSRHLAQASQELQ
Bridge positions count the residues as written; N and C are the ends. Square brackets hold non-standard residues; d marks the D form. Bip = N[C@@H](Cc1ccc(-c2ccccc2)cc1)C(=O)O; NMeA = CN[C@@H](C)C(=O)O
Endpoint label: IC50 (nM)
Form entry: value (nM) — number only.

Consider the binder shown here: {CH2CO}-FVPTT[Bip][NMeA][Bip][NMeA]DRPCG-NH2 (thioether N-13; SMILES CC(C)[C@@H]1NC(=O)[C@H](Cc2ccccc2)NC(=O)CSC[C@@H](C(=O)NCC(N)=O)NC(=O)[C@@H]2CCCN2C(=O)[C@H](CCCNC(=N)N)NC(=O)[C@H](CC(=O)O)NC(=O)[C@H](C)N(C)C(=O)[C@H](Cc2ccc(-c3ccccc3)cc2)NC(=O)[C@H](C)N(C)C(=O)[C@H](Cc2ccc(-c3ccccc3)cc2)NC(=O)[C@H]([C@@H](C)O)NC(=O)[C@H]([C@@H](C)O)NC(=O)[C@@H]2CCCN2C1=O, also called 1-19; Ex. No. 1-19) [Ac*-F-V-P-T-T-B-(N-Me)A-B-(N-Me)A-D-R-P-C*-G-NH2] What is its recorded IC50?
2.7
